ASSAY PROCEDURE: […] in iv dosed Wistar Han rat administered as single dose by LC-MS/MS analysis
Assay type: ADME, organism-based
TEST CONDITIONS: in vivo
READOUT KIND: clearance (L/h/kg)
Your answer should be a plain number; it is taken to be in L/h/kg.

Recorded clearance of N#Cc1ccc(C(O)(C2CC2)C(F)(F)F)cc1Cl (stereo unspecified) , please.
0.72

---

TESTED ON: Androgen receptor (Homo sapiens)
Sequence (P10275 whole entry): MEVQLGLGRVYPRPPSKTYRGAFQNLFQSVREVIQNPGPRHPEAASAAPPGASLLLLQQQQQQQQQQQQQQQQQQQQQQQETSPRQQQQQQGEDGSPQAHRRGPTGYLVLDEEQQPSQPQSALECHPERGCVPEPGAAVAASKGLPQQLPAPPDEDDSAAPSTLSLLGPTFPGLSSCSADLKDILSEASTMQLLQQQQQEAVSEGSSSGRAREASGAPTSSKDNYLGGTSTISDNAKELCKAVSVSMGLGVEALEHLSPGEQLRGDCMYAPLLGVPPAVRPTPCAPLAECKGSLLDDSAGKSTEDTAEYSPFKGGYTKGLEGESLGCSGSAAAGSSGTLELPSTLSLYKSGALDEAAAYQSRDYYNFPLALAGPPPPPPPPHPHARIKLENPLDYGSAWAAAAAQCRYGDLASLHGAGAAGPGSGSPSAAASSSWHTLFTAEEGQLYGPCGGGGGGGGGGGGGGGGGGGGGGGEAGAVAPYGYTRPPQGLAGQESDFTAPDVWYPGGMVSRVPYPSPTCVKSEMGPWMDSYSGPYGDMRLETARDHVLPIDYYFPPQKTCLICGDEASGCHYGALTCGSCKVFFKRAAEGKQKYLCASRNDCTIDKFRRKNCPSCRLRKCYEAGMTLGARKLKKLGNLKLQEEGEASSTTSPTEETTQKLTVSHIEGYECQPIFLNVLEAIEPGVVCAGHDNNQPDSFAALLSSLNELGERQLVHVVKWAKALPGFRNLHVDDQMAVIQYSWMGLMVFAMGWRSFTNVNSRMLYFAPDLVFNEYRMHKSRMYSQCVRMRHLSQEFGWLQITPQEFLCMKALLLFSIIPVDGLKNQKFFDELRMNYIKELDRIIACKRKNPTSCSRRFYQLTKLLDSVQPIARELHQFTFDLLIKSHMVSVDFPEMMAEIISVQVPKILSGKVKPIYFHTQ
ASSAY PROCEDURE: Modulation of human androgen receptor expressed in African green monkey CV1 cells after 24 hrs by luciferase reporter gene assay
READOUT KIND: EC50 (nM)
Your answer should be a plain number; it is taken to be in nM.

Solved cases below.
COMPOUND	READOUT KIND	RECORDED NUMBER
CC(C)(C)CC(O)(c1ccc(C#N)c(Cl)c1Cl)C(F)(F)F (stereo unspecified)	EC50	3.16
Cc1c(C#N)ccc(C(O)(C(C)C)C(F)(F)F)c1C (stereo unspecified)	EC50	12.6
N#Cc1ccc(C(O)(C2CCC2)C(F)(F)F)cc1Cl (stereo unspecified)	EC50	1.58
Cc1c(C(O)(c2nccs2)C(F)(F)F)ccc(C#N)c1C(F)(F)F (stereo unspecified)	EC50	10.5
N#Cc1ccc(C(O)(C2CCCC2)C(F)(F)F)cc1Cl (stereo unspecified)	EC50	3.16
Cc1c(C(O)(C2CCC2)C(F)(F)F)ccc(C#N)c1C(F)(F)F (stereo unspecified)	EC50	0.2
Cc1c(C#N)ccc(C(O)(C2CC2)C(F)(F)F)c1C (stereo unspecified)	EC50	1.58
Cc1c(C(O)(C#CC(C)(C)C)C(F)(F)F)ccc(C#N)c1Cl (stereo unspecified)	EC50	79.4
Cc1c(C#N)ccc(C(O)(CC(C)(C)C)C(F)(F)F)c1C (stereo unspecified)	EC50	20
Cc1c(C(O)(C2CC2)C(F)(F)F)ccc(C#N)c1Cl (stereo unspecified)	EC50	0.2

For the next question, use this compound.
Recorded EC50 of C/C=C(\C)C(O)(c1ccc(C#N)c(C(F)(F)F)c1)C(F)(F)F (stereo unspecified) , please.
39.8
